Data credit: the RNAGym collection of RNA variant scans (doi:10.1073/pnas.2313332121)

B1: TPR 5TU (parent)
chain: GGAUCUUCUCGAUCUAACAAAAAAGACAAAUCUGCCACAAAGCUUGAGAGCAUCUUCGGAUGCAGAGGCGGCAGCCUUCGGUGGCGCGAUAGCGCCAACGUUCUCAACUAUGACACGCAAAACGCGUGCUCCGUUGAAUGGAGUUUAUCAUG

variants of: B1; experiment: polymerase ribozyme fitness, log enrichment relative to wild type (log ratio); higher = more active; in vitro selection for triplet polymerase activity
This sample holds only a part of the variants without activity.

[
  {
    "mutation-list": "U13C A26U A52C U55A G88A A89C C99U U135G A142U",
    "relation": "≤",
    "polymerase ribozyme fitness (log ratio)": -4.2
  },
  {
    "mutation-list": "U56A C132G A137U",
    "relation": "=",
    "polymerase ribozyme fitness (log ratio)": -4.03
  },
  {
    "mutation-list": "U56C G74U C76U G84U C125G A138C",
    "relation": "≤",
    "polymerase ribozyme fitness (log ratio)": -4.2
  },
  {
    "mutation-list": "U15C A24G A39G G83A C99G",
    "relation": "≤",
    "polymerase ribozyme fitness (log ratio)": -4.2
  },
  {
    "mutation-list": "A16C C95U",
    "relation": "=",
    "polymerase ribozyme fitness (log ratio)": -0.661
  },
  {
    "mutation-list": "U31C G92C G126U",
    "relation": "=",
    "polymerase ribozyme fitness (log ratio)": 0.158
  },
  {
    "mutation-list": "U55A G81C G84U C116A",
    "relation": "=",
    "polymerase ribozyme fitness (log ratio)": -2.11
  },
  {
    "mutation-list": "A52C C87U A89C C99U",
    "relation": "=",
    "polymerase ribozyme fitness (log ratio)": -4.14
  },
  {
    "mutation-list": "C85A C125G",
    "relation": "=",
    "polymerase ribozyme fitness (log ratio)": -1.13
  },
  {
    "mutation-list": "C85G A119C",
    "relation": "=",
    "polymerase ribozyme fitness (log ratio)": -2.45
  },
  {
    "mutation-list": "G11A A110G",
    "relation": "=",
    "polymerase ribozyme fitness (log ratio)": -3.76
  },
  {
    "mutation-list": "G50A G88A C95U C123G U139G U151G",
    "relation": "≤",
    "polymerase ribozyme fitness (log ratio)": -4.2
  },
  {
    "mutation-list": "G94U U102C",
    "relation": "=",
    "polymerase ribozyme fitness (log ratio)": -2.06
  },
  {
    "mutation-list": "U56A G83U",
    "relation": "=",
    "polymerase ribozyme fitness (log ratio)": -0.976
  },
  {
    "mutation-list": "G94U C108U",
    "relation": "=",
    "polymerase ribozyme fitness (log ratio)": -3.54
  },
  {
    "mutation-list": "U9G C27G U55A C57A G59A",
    "relation": "≤",
    "polymerase ribozyme fitness (log ratio)": -4.2
  },
  {
    "mutation-list": "C85U G94U A97U",
    "relation": "=",
    "polymerase ribozyme fitness (log ratio)": -0.116
  },
  {
    "mutation-list": "A12U C14A G42A C96G U111G A122U",
    "relation": "≤",
    "polymerase ribozyme fitness (log ratio)": -4.2
  },
  {
    "mutation-list": "A21G A91G A115U C116A",
    "relation": "=",
    "polymerase ribozyme fitness (log ratio)": -3.91
  },
  {
    "mutation-list": "A39C G48C G88U A97G U144G",
    "relation": "≤",
    "polymerase ribozyme fitness (log ratio)": -4.2
  },
  {
    "mutation-list": "A40U G141U",
    "relation": "=",
    "polymerase ribozyme fitness (log ratio)": 0.96
  },
  {
    "mutation-list": "U33A A60C G74A A137C A150U",
    "relation": "≤",
    "polymerase ribozyme fitness (log ratio)": -4.2
  },
  {
    "mutation-list": "C125A U148C",
    "relation": "=",
    "polymerase ribozyme fitness (log ratio)": -3.48
  },
  {
    "mutation-list": "U33C C51U G59C C63A A120C C125G U134G",
    "relation": "≤",
    "polymerase ribozyme fitness (log ratio)": -4.2
  },
  {
    "mutation-list": "G94A A106C G136A",
    "relation": "=",
    "polymerase ribozyme fitness (log ratio)": -0.404
  },
  {
    "mutation-list": "A12G C32U C85A A137C",
    "relation": "≤",
    "polymerase ribozyme fitness (log ratio)": -4.2
  },
  {
    "mutation-list": "U55G G92A",
    "relation": "=",
    "polymerase ribozyme fitness (log ratio)": -3.13
  },
  {
    "mutation-list": "A40C U55A A107G A142G",
    "relation": "≤",
    "polymerase ribozyme fitness (log ratio)": -4.2
  },
  {
    "mutation-list": "C76U C79A C93U C116A C118A",
    "relation": "≤",
    "polymerase ribozyme fitness (log ratio)": -4.2
  },
  {
    "mutation-list": "A40G A41U U53A C123A C125U U134G",
    "relation": "=",
    "polymerase ribozyme fitness (log ratio)": -3.73
  },
  {
    "mutation-list": "A49C C51U C95U C96A G112A G126A",
    "relation": "≤",
    "polymerase ribozyme fitness (log ratio)": -4.2
  },
  {
    "mutation-list": "G50A C54U G80A U82G G88A G92A C93G U145A",
    "relation": "≤",
    "polymerase ribozyme fitness (log ratio)": -4.2
  },
  {
    "mutation-list": "C14G C35U G42C A52U C75A C79G G92C C118U G140C",
    "relation": "=",
    "polymerase ribozyme fitness (log ratio)": -4.09
  },
  {
    "mutation-list": "A66C C76U",
    "relation": "=",
    "polymerase ribozyme fitness (log ratio)": -3.47
  },
  {
    "mutation-list": "A19C C43U C76A G81C A91G A106U A121C G136U A142G",
    "relation": "≤",
    "polymerase ribozyme fitness (log ratio)": -4.2
  },
  {
    "mutation-list": "A52C G71A C85A G94C G141U",
    "relation": "≤",
    "polymerase ribozyme fitness (log ratio)": -4.2
  },
  {
    "mutation-list": "A17C G68A G83A C116A G128A",
    "relation": "≤",
    "polymerase ribozyme fitness (log ratio)": -4.2
  },
  {
    "mutation-list": "G58A C85G A115G",
    "relation": "=",
    "polymerase ribozyme fitness (log ratio)": -2.89
  },
  {
    "mutation-list": "A30G U33G U82C C103A U144A",
    "relation": "≤",
    "polymerase ribozyme fitness (log ratio)": -4.2
  }
]
